Measured RBC by item
organism: Rattus norvegicus; test: Open TG-GATES - Regimen: Single; assay type: toxicity, organism-based, Sprague-Dawley; design: regimen Single, gender Male, age 6 weeks; conditions: in vivo, po, 0 mg/kg, 24 h, tissue Blood, route gavage, dose level Control
Write the answer as a number in x10_4/ul, unit excluded.

Recorded result, COc1ccc2[nH]c([S+]([O-])Cc3ncc(C)c(OC)c3C)nc2c1 (configuration not stated) , RBC: 608

Recorded result, CCOC(=O)CCC(=O)O[C@H]1[C@H](O[C@@H]2[C@@H](C)[C@H](O[C@H]3C[C@@](C)(OC)[C@@H](O)[C@H](C)O3)[C@@H](C)C(=O)O[C@H](CC)[C@@](C)(O)[C@H](O)[C@@H](C)C(=O)[C@H](C)C[C@@]2(C)O)O[C@H](C)C[C@@H]1N(C)C [ERYTHROMYCIN ETHYLSUCCINATE] , RBC: 629.4

Recorded result, COC1=CC(=O)C[C@@H](C)[C@]12Oc1c(Cl)c(OC)cc(OC)c1C2=O , RBC: 601.4

Recorded result, Cc1ccc(C)c(OCCCC(C)(C)C(=O)O)c1 , RBC: 621.8

Recorded result, CN(C)CCCN1c2ccccc2CCc2ccccc21 , RBC: 626.2

Recorded result, CC(C)OC(=O)C(C)(C)Oc1ccc(C(=O)c2ccc(Cl)cc2)cc1 [FENOFIBRATE] , RBC: 590.8

Recorded result, CC1=C(/C=C/C(C)=C/C=C/C(C)=C/CO)C(C)(C)CCC1 , RBC: 598.2

* * *

Measured RALB by item
organism: Rattus norvegicus; assay: Open TG-GATES - Regimen: Single; assay type: toxicity, organism-based, Sprague-Dawley; set-up: regimen Single, gender Male, age 6 weeks; conditions: in vivo, po, 100 mg/kg, 9 h, tissue Plasma, route gavage, dose level High

Some molecules with known RALB results, for comparison:
# MOLECULE, REPORTED MEASUREMENT
data = [
    ("CN(C)CCCN1c2ccccc2CCc2ccccc21 [IMIPRAMINE]", "2.5 g/dL"),
    ("CN(C)CCCN1c2ccccc2CCc2ccc(Cl)cc21 [CLOMIPRAMINE]", "2.5 g/dL"),
]

Recorded result, CN(C)CCN(Cc1cccs1)c1ccccn1 , RALB: 2.9 g/dL

Recorded result, CC1=C(/C=C/C(C)=C/C=C/C(C)=C/CO)C(C)(C)CCC1 [RETINOL] , RALB: 3.1 g/dL

* * *

Measured WBC by item
species: Rattus norvegicus; assay: Open TG-GATES - Regimen: Single; format: toxicity, organism-based, Sprague-Dawley; design: regimen Single, gender Male, age 6 weeks; conditions: in vivo, po, 30 mg/kg, 6 h, tissue Blood, route gavage, dose level Middle
Write the answer as a number in x10_2/uL, unit excluded.

Some molecules with known WBC results, for comparison:
# LINE NOTATION, MEASUREMENT UNIT, WBC
records = [
    ("CN(C)CCCN1c2ccccc2CCc2ccc(Cl)cc21", "x10_2/uL", 82.3),
    ("CN(C)CCCN1c2ccccc2CCc2ccccc21", "x10_2/uL", 81.3),
    ("CN(C)CCN(Cc1cccs1)c1ccccn1", "x10_2/uL", 62.8),
]

# evaluate next
Recorded result, CC1=C(/C=C/C(C)=C/C=C/C(C)=C/CO)C(C)(C)CCC1 , WBC: 101.4
